Target: T1, Insulin-like Growth Factor II (IGF-II), recombinant human (human, UniProt P01344 25-91, biotinyl group (site not stated) when immobilised for SPR; not biotinylated as SPR analyte or in ITC)
T1 construct: mature; Bought as Biotinyl-IGF-II from GroPep for immobilisation on streptavidin chips; also called IGF2; Biotinyl-IGF-II
T1 sequence (P01344 25-91): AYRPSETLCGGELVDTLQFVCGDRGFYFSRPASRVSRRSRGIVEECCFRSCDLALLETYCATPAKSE
Test: SPR, steady-state KD relative to wild type domain 11
Experimental: […]. Values are the mean±S.E.M. of three separate experiments. […] Following purification, the binding of each mutant construct to IGF2 was assessed by SPR and compared to the wild type domain 11.
Property: Relative Affinity; scope: individual binders

binder="IGF2R domain 11 Y1542A (receptor, Secreted from Pichia pastoris) NEHDDCQVTNPSTGHLFDLSSLSGRAGFTAAASEKGLVYMSICGENENCPPGVGACFGQTRISVGKANKRLRYVDQVLQLVYKDGSPCPSKSGLSYKSVISFVCRPEAGPTNRPMLISLDKQTCTLFFSWHTPLACEQATHHHHHH" reported_result="0.16 fold vs wild type domain 11"
binder="IGF2R domain 11, wild type, expressed in Pichia pastoris with C-terminal His6 tag (receptor, Alpha-factor signal is cleaved during secretion; soluble 17 kDa protein; also called WT; wild type domain 11) NEHDDCQVTNPSTGHLFDLSSLSGRAGFTAAYSEKGLVYMSICGENENCPPGVGACFGQTRISVGKANKRLRYVDQVLQLVYKDGSPCPSKSGLSYKSVISFVCRPEAGPTNRPMLISLDKQTCTLFFSWHTPLACEQATHHHHHH" reported_result="1 fold vs wild type domain 11"
binder="IGF2R domain 11 K1545A (receptor, Secreted from Pichia pastoris) NEHDDCQVTNPSTGHLFDLSSLSGRAGFTAAYSEAGLVYMSICGENENCPPGVGACFGQTRISVGKANKRLRYVDQVLQLVYKDGSPCPSKSGLSYKSVISFVCRPEAGPTNRPMLISLDKQTCTLFFSWHTPLACEQATHHHHHH" reported_result="0.36 fold vs wild type domain 11"
binder="IGF2R domain 11 S1596A (receptor, Secreted from Pichia pastoris) NEHDDCQVTNPSTGHLFDLSSLSGRAGFTAAYSEKGLVYMSICGENENCPPGVGACFGQTRISVGKANKRLRYVDQVLQLVYKDGAPCPSKSGLSYKSVISFVCRPEAGPTNRPMLISLDKQTCTLFFSWHTPLACEQATHHHHHH" reported_result="0.61 fold vs wild type domain 11"

Let us examine a further case.
Query: So what's the measured Relative Affinity for this one? IGF2R domain 11 Q1569A (receptor, Secreted from Pichia pastoris) NEHDDCQVTNPSTGHLFDLSSLSGRAGFTAAYSEKGLVYMSICGENENCPPGVGACFGATRISVGKANKRLRYVDQVLQLVYKDGSPCPSKSGLSYKSVISFVCRPEAGPTNRPMLISLDKQTCTLFFSWHTPLACEQATHHHHHH
Reply: 0.8 fold vs wild type domain 11
